system: bone marrow derived macrophages (BMDMs); experiment: CCK-8 cell viability of BMDMs; assay type: cell-based, C57BL/6 mice; conditions: Mus musculus, BMDM, 24 hr, read-out: IC50, cell survival of BMDMs
measured_quantity: IC50

Returns the measured IC50 for the input compound. Input: C=CC(O)C#CC#CC/C=C\CCCCCCC (stereo in doubt) [PA]
~7 µM

Numbers sourced from patent US20240091169A1.
